target: F508del-CFTR (Homo sapiens, UniProt P13569, DEL508-508); test: Short-circuit current recordings on human bronchial epithelial cells from CF patients (F508del/F508del); type: cell-based; set-up: Human bronchial epithelial (HBE) cells obtained from CF patients (F508del/F508del genotype); endogenous in cells; host or cells: primary human bronchial epithelial cells from CF patients, F508del/F508del; conditions: HBE cells F508del/F508del, 24 hrs treatment, CPT-cAMP plus VX-770 minus CFTRinh-172
Sequence (P13569 with tags, fused parts or gaps DEL508-508): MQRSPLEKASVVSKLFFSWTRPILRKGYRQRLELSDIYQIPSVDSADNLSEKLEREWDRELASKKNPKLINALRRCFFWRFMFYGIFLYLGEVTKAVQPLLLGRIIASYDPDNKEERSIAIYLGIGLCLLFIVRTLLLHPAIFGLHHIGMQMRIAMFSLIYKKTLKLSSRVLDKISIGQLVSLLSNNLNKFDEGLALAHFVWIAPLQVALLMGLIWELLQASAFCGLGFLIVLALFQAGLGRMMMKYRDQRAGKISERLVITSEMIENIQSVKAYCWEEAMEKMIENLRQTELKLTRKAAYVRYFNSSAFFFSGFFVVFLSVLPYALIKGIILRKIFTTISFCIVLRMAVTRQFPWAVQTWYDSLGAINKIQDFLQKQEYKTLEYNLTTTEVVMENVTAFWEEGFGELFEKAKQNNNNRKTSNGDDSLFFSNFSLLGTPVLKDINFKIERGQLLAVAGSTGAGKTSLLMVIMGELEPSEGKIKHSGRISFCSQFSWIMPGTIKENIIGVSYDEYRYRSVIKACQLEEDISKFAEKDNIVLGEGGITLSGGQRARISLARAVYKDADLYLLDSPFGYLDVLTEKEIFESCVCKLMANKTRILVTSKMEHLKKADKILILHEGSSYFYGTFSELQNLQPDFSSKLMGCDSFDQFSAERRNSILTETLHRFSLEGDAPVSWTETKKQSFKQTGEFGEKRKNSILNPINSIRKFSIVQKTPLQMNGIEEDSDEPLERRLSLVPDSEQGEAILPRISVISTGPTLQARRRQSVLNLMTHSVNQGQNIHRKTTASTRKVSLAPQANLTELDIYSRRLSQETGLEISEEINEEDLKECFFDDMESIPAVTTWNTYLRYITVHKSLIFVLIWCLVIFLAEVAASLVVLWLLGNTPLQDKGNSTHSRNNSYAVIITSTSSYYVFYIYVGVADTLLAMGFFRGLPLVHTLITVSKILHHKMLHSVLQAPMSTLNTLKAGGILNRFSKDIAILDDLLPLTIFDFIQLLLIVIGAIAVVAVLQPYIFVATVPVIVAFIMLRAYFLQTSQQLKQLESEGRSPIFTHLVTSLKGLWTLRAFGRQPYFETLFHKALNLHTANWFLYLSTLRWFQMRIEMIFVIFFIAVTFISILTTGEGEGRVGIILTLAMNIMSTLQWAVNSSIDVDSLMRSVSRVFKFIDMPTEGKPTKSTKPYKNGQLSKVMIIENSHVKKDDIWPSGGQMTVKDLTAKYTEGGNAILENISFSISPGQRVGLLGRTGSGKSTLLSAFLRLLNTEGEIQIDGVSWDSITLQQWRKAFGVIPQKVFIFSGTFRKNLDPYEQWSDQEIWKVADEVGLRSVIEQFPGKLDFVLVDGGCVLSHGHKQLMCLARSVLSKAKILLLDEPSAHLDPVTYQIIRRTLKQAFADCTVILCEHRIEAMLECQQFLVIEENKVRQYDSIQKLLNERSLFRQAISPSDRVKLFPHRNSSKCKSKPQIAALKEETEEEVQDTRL
experimental-endpoint: activity (ΔICFTR)

Cc1nc2ccc(S(=O)(=O)N3CCOC(c4c(C(N)=O)sc5ccccc45)C3)cc2o1 (racemic) [compound 034] | +++ (ΔICFTR >3.0 μA)
Cc1nc2ccc(S(=O)(=O)N3CCO[C@H](c4c(C(N)=O)sc5ccccc45)C3)cc2o1 (single isomer, unassigned) [compound 071] | +++ (ΔICFTR >3.0 μA)
NC(=O)c1sc2ccccc2c1C1CN(S(=O)(=O)c2ccc(C(F)(F)F)cc2)CCO1 (racemic) [compound 011] | +++ (ΔICFTR >3.0 μA)

* * *

molecular target: mutant CFTR (Homo sapiens); test: Fluorescence assay for CFTR activity (halide-sensitive YFP, HS-YFP); settings: CFBE41o- and FRT cells with stable expression of mutant CFTR
Please provide measured EC50 for the entries that follow.

Sample records with EC50:
CC(C)(C)OC(=O)N1CCC(S(=O)(=O)N2CCOC(c3c(C(N)=O)sc4ccccc34)C2)CC1 (racemic) | > 2000 nM
COc1cccc(S(=O)(=O)N2CCOC(c3c(C(N)=O)sc4ccccc34)C2)c1 (racemic) | > 2000 nM
Cc1nc2ccc(S(=O)(=O)N3CCO[C@H](c4c(C(N)=O)sc5ccccc45)C3)cc2o1 (single isomer, unassigned) | < 1000 nM
NC(=O)c1sc2ccccc2c1[C@H]1CN(S(=O)(=O)c2ccc(C(F)(F)F)c(F)c2)CCO1 (single isomer, unassigned) | > 2000 nM
NC(=O)c1sc2ccccc2c1C1CN(S(=O)(=O)c2c[nH]cn2)CCO1 (racemic) | > 2000 nM
NC(=O)c1sc2ccccc2c1C1CN(S(=O)(=O)c2ccc3c(c2)OCO3)CCO1 (racemic) | 1000 to 2000 nM

For the 7 molecules below, give their EC50 values.
1. CNC(=O)c1sc2ccccc2c1C1CN(S(=O)(=O)c2c(C)noc2C)CCO1 (stereo not drawn)
2. NC(=O)c1sc2ccccc2c1C1CN(S(=O)(=O)c2ccc(F)cc2)CCO1 (racemic)
3. NC(=O)c1sc2ccccc2c1[C@@H]1CN(S(=O)(=O)c2ccc(C(F)(F)F)cc2)CCO1 (single isomer, unassigned)
4. Cc1cc(S(=O)(=O)N2CCO[C@H](c3c(C(N)=O)sc4ccccc34)C2)ccc1F (single isomer, unassigned)
5. NC(=O)c1sc2ccccc2c1C1CN(S(=O)(=O)c2ccc([N+](=O)[O-])cc2)CCO1 (racemic)
6. NC(=O)c1sc2ccccc2c1C1CN(S(=O)(=O)c2ccccc2C(F)(F)F)CCO1 (racemic)
7. CNC(=O)c1sc2ccccc2c1C1CN(S(=O)(=O)c2ccc(F)c(C)c2)CCO1 (racemic)

1: > 2000 nM; 2: > 2000 nM; 3: > 2000 nM; 4: > 2000 nM; 5: > 2000 nM; 6: > 2000 nM; 7: > 2000 nM

For the 7 molecules below, give their EC50 values.
1. NC(=O)C1=C(C2CN(S(=O)(=O)c3ccc(C(F)(F)F)c(F)c3)CCO2)c2ccccc2S1(=O)=O (racemic)
2. Cc1cc(S(=O)(=O)N2CCOC(c3c(C(N)=O)sc4ccccc34)C2)ccc1F (racemic)
3. COC(=O)c1cccc(S(=O)(=O)N2CCOC(c3c(C(N)=O)sc4ccccc34)C2)c1 (racemic)
4. COc1ccc(S(=O)(=O)N2CCOC(c3c(C(N)=O)sc4ccccc34)C2)cc1[N+](=O)[O-] (racemic)
5. O=C(NCCO)c1sc2ccccc2c1C1CN(S(=O)(=O)c2ccccc2)CCO1 (stereo not drawn)
6. NC(=O)c1sc2ccccc2c1C1CN(S(=O)(=O)c2ccc(-c3ccccc3)cc2)CCO1 (racemic)
7. CCNC(=O)c1sc2ccccc2c1C1CN(S(=O)(=O)c2ccc(F)c(C)c2)CCO1 (racemic)

["< 1000 nM", "> 2000 nM", "> 2000 nM", "> 2000 nM", "> 2000 nM", "< 1000 nM", "> 2000 nM"]

Look up EC50 of Cc1ccc(S(=O)(=O)N2CCOC(c3c(C(N)=O)sc4ccccc34)C2)cc1F (racemic) and report it.
< 1000 nM

* * *

molecular target: F508del-CFTR (Homo sapiens, UniProt P13569, DEL508-508); experiment: Transepithelial electrical conductance (TEEC) in FRT cells expressing F508del-CFTR; format: cell-based; design: expressed in transfected cells; host or cells: FRT cells; conditions: tested at 5.0 μM, 24 hrs incubation
experimental-endpoint: activity (corrector activity expressed as ΔTEEC)

NC(=O)c1sc2ccccc2c1[C@H]1CN(S(=O)(=O)c2ccc(C(F)(F)F)cc2)CCO1 (single isomer, unassigned) | +++ (ΔTEEC>3000 μS)
NC(=O)c1sc2ccccc2c1C1CN(S(=O)(=O)c2ccc(C(F)(F)F)c(F)c2)CCO1 (racemic) | +++ (ΔTEEC>3000 μS)

* * *

Please provide measured pEC50 for the entries that follow.
biological target: mutant CFTR (Homo sapiens, UniProt P13569); experiment: Fluorescence assay for CFTR activity (halide-sensitive YFP, HS-YFP); settings: CFBE41o- and FRT cells with stable expression of mutant CFTR
Sequence (P13569 with tags, fused parts or gaps DEL508-508): as above
pEC50: −log10 of the molar value.

NC(=O)c1sc2ccccc2c1C1CN(S(=O)(=O)c2ccc(Cl)cc2)CCO1 (racemic) | 5.70 to 6.00

For the 5 compounds below, give their pEC50 values.
1. NC(=O)c1sc2ccccc2c1C1CN(S(=O)(=O)c2cccc(F)c2)CCO1 (racemic)
2. NC(=O)c1sc2ccccc2c1C1CN(S(=O)(=O)c2ccc(C(F)(F)F)c(F)c2)CCO1 (single isomer, unassigned) [compound 056]
3. NC(=O)c1sc2ccccc2c1C1CN(S(=O)(=O)c2ccc(C(F)(F)F)cc2)CCO1 (racemic)
4. CCCCS(=O)(=O)N1CCOC(c2c(C(N)=O)sc3ccccc23)C1 (racemic)
5. NC(=O)c1sc2ccccc2c1C1CN(S(=O)(=O)c2cccc(C(F)(F)F)c2)CCO1 (racemic)

["5.70 to 6.00", "> 6.00", "5.70 to 6.00", "< 5.70", "> 6.00"]

* * *

target: mutant CFTR (Homo sapiens, UniProt P13569); assay: Fluorescence assay for CFTR activity (halide-sensitive YFP, HS-YFP); conditions: CFBE41o- and FRT cells with stable expression of mutant CFTR
experimental-endpoint: EC50

For the 4 compounds below, give their EC50 values.
1. COCCS(=O)(=O)N1CCOC(c2c(C(N)=O)sc3ccccc23)C1 (racemic) [compound 059]
2. NC(=O)c1sc2ccccc2c1C1CN(S(=O)(=O)c2ccc(Oc3ccncc3)cc2)CCO1 (racemic) [compound 024]
3. CC(C)(C)c1ccc(S(=O)(=O)N2CCOC(c3c(C(N)=O)sc4ccccc34)C2)cc1 (racemic) [compound 036]
4. NC(=O)c1sc2ccccc2c1C1CN(S(=O)(=O)c2ccccc2OC(F)(F)F)CCO1 (racemic) [compound 067]

1. > 2000 nM
2. > 2000 nM
3. < 1000 nM
4. > 2000 nM

* * *

biological target: mutant CFTR (Homo sapiens); assay: Fluorescence assay for CFTR activity (halide-sensitive YFP, HS-YFP); conditions: CFBE41o- and FRT cells with stable expression of mutant CFTR
Please provide measured EC50 for the entries that follow.

Sample records with EC50:
CC(C)NC(=O)c1sc2ccccc2c1C1CN(S(=O)(=O)c2cnn(C)c2)CCO1 (stereo not shown) | > 2000 nM
COc1ccc(S(=O)(=O)N2CCOC(c3c(C(N)=O)sc4ccccc34)C2)cc1F (racemic) | > 2000 nM
COc1ccc(S(=O)(=O)N2CCOC(c3c(C(N)=O)sc4ccccc34)C2)cc1 (racemic) | 1000 to 2000 nM
NC(=O)c1sc2ccccc2c1C1CN(S(=O)(=O)c2ccc3ccccc3c2)CCO1 (racemic) | > 2000 nM
NC(=O)c1sc2ccccc2c1C1CN(S(=O)(=O)c2ccc(O)cc2)CCO1 (racemic) | > 2000 nM
Cc1cc(C)c(S(=O)(=O)N2CCOC(c3c(C(N)=O)sc4ccccc34)C2)c(C)c1 (racemic) | > 2000 nM
Cc1nc2ccc(S(=O)(=O)N3CCOC(c4c(C(N)=O)sc5ccccc45)C3)cc2o1 (racemic) | < 1000 nM
NC(=O)c1sc2ccccc2c1C1CN(S(=O)(=O)c2ccc(S(F)(F)(F)(F)F)cc2)CCO1 (racemic) | 1000 to 2000 nM
NC(=O)c1sc2ccccc2c1C1CN(S(=O)(=O)c2ccc3c(c2)OCCO3)CCO1 (racemic) | < 1000 nM
Cc1ccc(F)cc1S(=O)(=O)N1CCOC(c2c(C(N)=O)sc3ccccc23)C1 (racemic) | > 2000 nM

For the 2 molecules below, give their EC50 values.
1. CN1CCOc2cc(S(=O)(=O)N3CCOC(c4c(C(N)=O)sc5ccccc45)C3)ccc21 (racemic)
2. NC(=O)c1sc2ccccc2c1C1CN(S(=O)(=O)c2ccc(F)c(C(F)(F)F)c2)CCO1 (racemic)

1. < 1000 nM
2. > 2000 nM

For the 4 molecules below, give their EC50 values.
1. NC(=O)c1sc2ccccc2c1C1CN(S(=O)(=O)c2ccc(N3CCCC3=O)cc2)CCO1 (racemic)
2. COc1ccc(S(=O)(=O)N2CCOC(c3c(C(N)=O)sc4ccccc34)C2)cc1OC (racemic)
3. NC(=O)c1sc2ccccc2c1C1CN(S(=O)(=O)c2ccc(Oc3ccccc3)cc2)CCO1 (racemic)
4. Cc1cccc(S(=O)(=O)N2CCOC(c3c(C(N)=O)sc4ccccc34)C2)c1 (racemic)

["> 2000 nM", "> 2000 nM", "< 1000 nM", "1000 to 2000 nM"]
